The reported measurements were obtained from paper PMC7820887.

Biological target: T1, soluble extracellular domain of human IL-5 receptor alpha subunit (sIL-5Rα) (human, UniProt Q01344 21-333)
T1 chain: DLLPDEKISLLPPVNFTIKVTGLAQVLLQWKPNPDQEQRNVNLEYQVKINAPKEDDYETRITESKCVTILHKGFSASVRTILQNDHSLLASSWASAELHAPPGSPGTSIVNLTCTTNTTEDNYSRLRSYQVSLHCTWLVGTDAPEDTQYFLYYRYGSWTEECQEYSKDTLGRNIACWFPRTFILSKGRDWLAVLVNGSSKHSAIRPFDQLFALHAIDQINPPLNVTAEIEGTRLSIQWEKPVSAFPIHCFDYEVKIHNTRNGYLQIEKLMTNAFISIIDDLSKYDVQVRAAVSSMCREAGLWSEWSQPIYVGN
Assay: ELISA; competition with plate-immobilized IL-5-mFc
reported-endpoint: pIC50
Quick note: pIC50 means taking -log10 of the concentration in moles per liter.

Consider the worked cases shown below.
binder	reported-endpoint	numeric-readout
hu2B7 humanized anti–IL-5Rα antibody (antibody, V domains shown, VH of hu2B7: CDRs of m2B7 grafted on the FRs of daclizumab, mouse ThrH93 (Kabat) kept; VL of hu2B7: CDRs of m2B7 grafted on the FRs of daclizumab, mouse AspL60 and AspL70 kept; Full-length human IgG1, kappa; source: HEK293F, transiently cotransfected, purified (Protein A)) VH: QVQLVQSGAEVKKPGSSVKVSCKASGYTFTSYWINWVRQAPGQGLEWIGHIYPSESYTNYNQKFKDKATLTVDKSTNTAYMELSSLRSEDTAVYYCTRDYYGRSYYYAMDYWGQGTTLTVSS VL: DIQMTQSPSTLSASVGDRVTITCKASQNVGTAVAWYQQKPGKAPKLLIYWASTRHTGVPDRFSGSGSGTDFTLTISSLQPDDFATYYCQQFGRYPYTFGSGTKVEVK	pIC50	7.24
5R68 (antibody, V domains shown, Human IgG1, kappa; selected as scFab by yeast display from the hu2B7 VH-CDR2 library; source: HEK293F, purified (Protein A)) VH: QVQLVQSGAEVKKPGSSVKVSCKASGYTFTSYWINWVRQAPGQGLEWIGHIYPTATIAVYNDKFKDKATLTVDKSTNTAYMELSSLRSEDTAVYYCTRDYYGRSYYYAMDYWGQGTTLTVSS VL: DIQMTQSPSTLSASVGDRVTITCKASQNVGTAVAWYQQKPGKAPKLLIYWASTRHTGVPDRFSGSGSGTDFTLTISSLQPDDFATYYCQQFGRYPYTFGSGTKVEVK	pIC50	7.54

# next binder below
QUERY: Using the record for 5R80 (antibody, V domains shown, Human IgG1, kappa; selected as scFab by yeast display from the hu2B7 VH-CDR2 library; source: HEK293F, purified (Protein A)) VH: QVQLVQSGAEVKKPGSSVKVSCKASGYTFTSYWINWVRQAPGQGLEWIGHIYPQKTLTIYNHKFKDKATLTVDKSTNTAYMELSSLRSEDTAVYYCTRDYYGRSYYYAMDYWGQGTTLTVSS VL: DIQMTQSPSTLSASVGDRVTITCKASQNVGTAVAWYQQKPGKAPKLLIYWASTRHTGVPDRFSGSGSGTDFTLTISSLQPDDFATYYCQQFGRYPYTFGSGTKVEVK , state its measured pIC50.
RESULT: 7.62
